biological target: biotinylated MBL (Mannan Binding Lectin) (Homo sapiens); experiment: ELLA (Enzyme Linked Lectin Assay), glucose inhibition of MBL binding to coated antigen, Examples A8/A8a; settings: coated antigen: AmDex 150K (aminodextran); dilutions of glucose 100 mM to 0 mM; read-out: MBL affinity (IC50) or Abs(0 mM Glc)
result.type: IC50

// IC50 lookup, compound = OC[C@H]1OC(O)[C@H](O)[C@@H](O)[C@@H]1O (stereo partly shown) , result: 9.7 mM

* * *

molecular target: UniProtKB P11226; test: ELLA (Enzyme Linked Lectin Assay), glucose inhibition of MBL binding to coated antigen, Examples A8/A8a; details: glucose inhibiting MBL binding to plate coated with 40 mol% mannose polymer of Example A4 (Example A8); TBS, 1.25 mM CaCl2, pH 7.4; read-out: IC50
result.type: IC50 (mM)
Answer format: numeric, mM implied, no suffix.

// IC50 lookup, compound = OC[C@H]1OC(O)[C@H](O)[C@@H](O)[C@@H]1O (stereo partly shown) , result: 16.8

* * *

molecular target: biotinylated MBL (Mannan Binding Lectin) (Homo sapiens); experiment: ELLA (Enzyme Linked Lectin Assay), glucose inhibition of MBL binding to coated antigen, Examples C3/C5; conditions: coated antigen: 35 mol% Man Copolymer; glucose as inhibitor; 1.25 mM CaCl2; value only valid for this particular assay
result.type: pIC50
The scale used: pIC50 is minus the common logarithm of the concentration in molar units.

// pIC50 lookup, compound = OC[C@H]1OC(O)[C@H](O)[C@@H](O)[C@@H]1O (stereo partly shown) , result: 1.89

* * *

molecular target: biotinylated MBL (Mannan Binding Lectin) (Homo sapiens, UniProt P11226); assay: ELLA (Enzyme Linked Lectin Assay), glucose inhibition of MBL binding to coated antigen, Examples C3/C5; details: coated antigen: Aminodextran; glucose as inhibitor; 1.25 mM CaCl2; value only valid for this particular assay
Sequence (P11226 21-248): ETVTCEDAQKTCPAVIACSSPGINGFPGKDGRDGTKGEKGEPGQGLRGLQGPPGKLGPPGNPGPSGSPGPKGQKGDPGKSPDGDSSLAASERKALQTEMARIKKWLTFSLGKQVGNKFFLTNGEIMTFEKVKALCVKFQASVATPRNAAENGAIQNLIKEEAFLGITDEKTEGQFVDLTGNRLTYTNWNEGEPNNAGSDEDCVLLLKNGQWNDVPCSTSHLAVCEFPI
result.type: IC50 (mM)
Answer format: numeric, mM implied, no suffix.

// IC50 lookup, molecule = OC[C@H]1OC(O)[C@H](O)[C@@H](O)[C@@H]1O (stereo partly shown) [glucose] , result: 23

* * *

molecular target: UniProt:P11226; test: ELLA (Enzyme Linked Lectin Assay), glucose inhibition of MBL binding to coated antigen, Examples A8/A8a; conditions: coated antigen: Polymer of Example A4a; dilutions of glucose 100 mM to 0 mM; read-out: MBL affinity (IC50) or Abs (0 mM Glc)
result.type: IC50

// IC50 lookup, compound = OC[C@H]1OC(O)[C@H](O)[C@@H](O)[C@@H]1O (stereo partly shown) , result: 50 to 80 mM

* * *

molecular target: biotinylated MBL (Mannan Binding Lectin) (Homo sapiens); test: ELLA (Enzyme Linked Lectin Assay), glucose inhibition of MBL binding to coated antigen, Examples A8/A8a; settings: glucose inhibiting MBL binding to plate coated with 80 mol% mannose polymer of Example A4a; TBS, 1.25 mM CaCl2, pH 7.4; read-out: IC50
pIC50: −log10 of the molar value.
result.type: pIC50

// pIC50 lookup, compound = OC[C@H]1OC(O)[C@H](O)[C@@H](O)[C@@H]1O (stereo partly shown) , result: 1.10 to 1.30
